Field: n = 1 IC50 (nM), cAMP antagonist assay. Provide a value for each of the binders that follow.
Biological target: human cannabinoid receptor 1 (huCB1), full length, expressed on cells (human, UniProt P21554 1-472)
Sequence (P21554 whole entry): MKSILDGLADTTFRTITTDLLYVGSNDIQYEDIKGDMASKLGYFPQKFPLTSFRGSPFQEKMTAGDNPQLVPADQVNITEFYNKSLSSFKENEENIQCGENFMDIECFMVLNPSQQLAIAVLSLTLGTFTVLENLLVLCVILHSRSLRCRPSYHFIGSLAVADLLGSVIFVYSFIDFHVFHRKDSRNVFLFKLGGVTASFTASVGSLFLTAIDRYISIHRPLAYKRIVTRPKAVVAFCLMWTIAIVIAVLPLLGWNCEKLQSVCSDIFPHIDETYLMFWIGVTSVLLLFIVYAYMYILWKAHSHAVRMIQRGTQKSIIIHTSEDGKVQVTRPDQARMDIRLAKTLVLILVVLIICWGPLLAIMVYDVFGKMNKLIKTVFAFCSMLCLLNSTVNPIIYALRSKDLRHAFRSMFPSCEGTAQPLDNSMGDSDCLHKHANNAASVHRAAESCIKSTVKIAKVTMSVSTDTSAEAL
Experiment: cell-based or functional assay
Provide the reading as a plain figure in nM.

Ask: Kindly indicate its recorded n = 1 IC50 (nM), cAMP antagonist assay. Item: LIBC528169-1 (antibody, V domains shown) VH: QVQLQESGPGLVKPSQTLSLTCTVSGGSIRRGGDYWSWIRQHPGKGLEWIGHIYQSGSTKYNPSFEDRATISVNTYKNQFSLKLSSVTAADTAVYYCARDYDILTGYSYYYYGMDVWGQGTTVTVSS VL: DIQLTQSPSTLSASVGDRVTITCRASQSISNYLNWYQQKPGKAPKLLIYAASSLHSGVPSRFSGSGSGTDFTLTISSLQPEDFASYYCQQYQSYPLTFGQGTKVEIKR
Result: 12.3

Ask: Fill in reported n = 1 IC50 (nM), cAMP antagonist assay for this entry: LIBC523760-1 (antibody, V domains shown) VH: QVQLQESGPGLVKPSQTLSLTCTVSGGSIRRGGDYWSWIRQHPGKGLEWIGHVYQTGSTKYNPKFKGRATISVNTYKNQFSLKLSSVTAADTAVYYCARDYDILTGYSYYYYGMDVWGQGTTVTVSS VL: DIVMTQSPLSLPVTPGEPASISCRSSQSLLTSSGANYVDWYLQKPGQSPQLLIYLGSNRASGVPDRFSGSGSGTDFTLKISRVEAEDVGVYYCRQAVGTPRTFGQGTKVEIKR
Result: 6.12

Ask: Identify measured n = 1 IC50 (nM), cAMP antagonist assay associated with LIBC527984-1 (antibody, V domains shown) VH: QVQLQESGPGLVKPSQTLSLTCTVSGGSIRRGGDYWSWIRQHPGKGLEWIGHIYQTGKTNYNPNFKSRATISVNTYKNQFSLKLSSVTAADTAVYYCARDYDILTGYSYYYYGMDVWGQGTTVTVSS VL: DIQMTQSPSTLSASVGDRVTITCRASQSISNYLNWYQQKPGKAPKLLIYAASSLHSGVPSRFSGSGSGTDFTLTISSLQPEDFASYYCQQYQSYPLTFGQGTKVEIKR
Result: 7.24

Ask: Give the value of n = 1 IC50 (nM), cAMP antagonist assay reported for the following: LIBC527906-1 (antibody, V domains shown) VH: QVQLQESGPGLVKPSQTLSLTCTVSGGSIRRGGDYWGWIRQHPGKGLEWIGHIYQTGSTNYNPNFKDRATISVDTYKNQFSLKLSSVTAADTAVYYCARDYDILTGYSYYYYGMDVWGQGTTVTVSS VL: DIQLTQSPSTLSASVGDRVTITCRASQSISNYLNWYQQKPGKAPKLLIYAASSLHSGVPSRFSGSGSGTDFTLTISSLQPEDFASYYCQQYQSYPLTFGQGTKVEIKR
Result: 7.66

Ask: Specify n = 1 IC50 (nM), cAMP antagonist assay for LIBC523868-1 (antibody, V domains shown) VH: QVQLQESGPGLVKPSQTLSLTCTVSGGSIRRGGDYWSWIRQHPGKGLEWIGHVYYEGSTAYNPSFEDRATISVNTYKNQFSLKLSSVTAADTAVYYCARDYDILTGYSYYYYGMDVWGQGTTVTVSS VL: DIVMTQSPLSLPVTPGEPASISCRSSQSLLTSYGINYVDWYLQKPGQSPQLLIYLGSNRASGVPDRFSGSGSGTDFTLKISRVEAEDVGVYYCMQARQIPRTFGQGTKVEIKR and stop.
Result: 11.9
